molecular target: human 11-beta HSD-1 (Homo sapiens, UniProt P28845); assay: 11beta-HSD1 enzyme assay, human recombinant enzyme (HTRF cortisol); conditions: human recombinant enzyme from E. Coli, cortisone/NADPH, 150 minutes at 37° C.; read-out: Inhibition of human 11-beta HSD-1 IC50
Sequence (P28845 whole entry): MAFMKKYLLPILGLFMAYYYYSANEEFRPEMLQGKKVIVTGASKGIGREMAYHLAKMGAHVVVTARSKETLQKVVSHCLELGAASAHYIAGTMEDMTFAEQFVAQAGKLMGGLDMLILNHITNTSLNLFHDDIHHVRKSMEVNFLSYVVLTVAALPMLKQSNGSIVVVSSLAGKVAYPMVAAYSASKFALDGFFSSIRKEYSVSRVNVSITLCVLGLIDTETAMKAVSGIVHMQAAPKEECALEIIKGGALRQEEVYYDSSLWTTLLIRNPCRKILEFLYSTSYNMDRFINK
measuredAttribute: IC50 (nM)

Previously resolved entries follow.
CC(C)(COc1ccc(F)cc1)CC(=O)N1CCC(c2c[nH]c3ncccc23)CC1    110
O=C(CS(=O)(=O)c1ccc(Cl)cc1)N1CCC(c2c[nH]c3ncccc23)C1 (stereo not shown)    29

[P] CC(C)(C(=O)N1CCC(c2c[nH]c3ncccc23)CC1)N1CCN(c2ccc(C(F)(F)F)cn2)CC1
[Q] O=C(N1CCC(c2c[nH]c3ncccc23)C1)C1(c2ccccc2)CC1 (stereo not shown)
[R] CC(C)(C(=O)N1CCC(c2c[nH]c3ncccc23)C1)c1ccc(Cl)cc1 (stereo not shown)
[S] CC(C)(COc1ccc(F)cc1)CC(=O)N1CCC(c2c[nH]c3ncccc23)C1 (stereo not shown)
[T] O=C(C1CCCCC1)N1CCC(c2c[nH]c3ncccc23)C1 (stereo not shown)
Q: Please list the entries, largest IC50 first. State the ranking by listing the labels in the requested order.
Ans: P, T, Q, S, R
